// reported viability at 48 h, 50 µM for each item listed
Experiment: Cytotoxicity against mouse B16F10 cells assessed as cell survival at 50 uM after 48 hrs by MTT assay
Type: cell-based, B16-F10
Conditions: read-out: Survival

Answered cases to consult:
molecule	viability at 48 h, 50 µM
NC(=S)c1ccccc1	117%
CCCc1cc(C(N)=S)ccn1 [PROTIONAMIDE]	121%
NC(=S)Nc1ccccc1	106%
CCc1cc(C(N)=S)ccn1 [ETHIONAMIDE]	106%
CC(=O)Nc1ccccc1 [ACETANILIDE]	116%
NC(=S)c1cccnc1	108%
NNC(=O)c1ccncc1	103%
CC(=S)Nc1ccccc1	116%
NC(=S)c1ccncc1	110%

API: the following record is the query input.
Request: # lookup: viability at 48 h, 50 µM of `NC(=S)c1ccccn1`
Result: 105%

* * *

Biological target: Tyrosinase (Mus musculus)
Assay: Inhibition of tyrosinase in mouse B16F10 cell lysates using DOPA as substrate relative to control
Format: cell-free
Set-up: concentration or dose not given beside the values
Conditions: B16-F10, concentration not given here
measure: inhibition (%)
Number in %, nothing else.

Answered cases to consult:
compound	inhibition [%]
NC(=S)c1cccnc1	83
NC(=S)c1ccccc1	72

Request: # returns recorded inhibition (system: Tyrosinase (Mus musculus)) for CC(=O)Nc1ccccc1 [ACETANILIDE]
Result: 99

Request: Same lookup for `NC(=S)c1ccccn1` , please.
Result: 78

* * *

Target: Tyrosinase (Mus musculus)
Sequence (whole entry): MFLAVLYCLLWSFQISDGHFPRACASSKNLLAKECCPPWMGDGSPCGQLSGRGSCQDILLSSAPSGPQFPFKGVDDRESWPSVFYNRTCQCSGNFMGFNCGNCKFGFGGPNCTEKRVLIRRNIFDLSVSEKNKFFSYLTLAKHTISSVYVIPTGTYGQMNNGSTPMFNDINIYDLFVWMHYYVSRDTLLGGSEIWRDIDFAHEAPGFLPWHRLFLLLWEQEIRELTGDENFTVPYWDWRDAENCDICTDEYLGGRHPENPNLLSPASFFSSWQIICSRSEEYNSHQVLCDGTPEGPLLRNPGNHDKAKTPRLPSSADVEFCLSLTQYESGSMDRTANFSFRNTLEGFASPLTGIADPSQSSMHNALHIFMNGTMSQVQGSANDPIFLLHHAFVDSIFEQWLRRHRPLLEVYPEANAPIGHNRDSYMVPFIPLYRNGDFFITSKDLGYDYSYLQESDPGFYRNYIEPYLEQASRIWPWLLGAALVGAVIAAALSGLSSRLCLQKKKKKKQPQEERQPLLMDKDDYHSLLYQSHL
Experiment: Inhibition of tyrosinase in mouse B16F10 cells assessed as remaining melanin production at 10 uM relative to control
Details: B16-F10
measure: residual activity (%)
Number in %, nothing else.

Answered cases to consult:
compound	readingUnit	residual activity
NC(=S)c1ccccn1	%	98
NNC(=O)c1ccncc1 [ISONIAZID]	%	104
NC(=S)Nc1ccccc1 [PHENYLTHIOUREA]	%	63
NC(=S)c1ccncc1	%	106
CC(=S)Nc1ccccc1	%	91
CCCc1cc(C(N)=S)ccn1 [PROTIONAMIDE]	%	105
NC(=S)c1ccccc1	%	103
CCc1cc(C(N)=S)ccn1 [ETHIONAMIDE]	%	107

Request: # lookup: residual activity of CC(=O)Nc1ccccc1 [ACETANILIDE]
Result: 105

Request: Same lookup for `NC(=S)c1cccnc1` , please.
Result: 109

* * *

Target: Tyrosinase (Agaricus bisporus)
Test: Non-competitive inhibition of mushroom tyrosinase using L-tyrosine as substrate by Lineweaver-Burk plots analysis
Hi! Could you tag entries with Kic below 3 µM as Y, and those at or above as N? Much appreciated.

Some solved cases for reference:
molecule	cat
NC(=S)c1ccncc1	N
CCCc1cc(C(N)=S)ccn1 [PROTIONAMIDE]	Y
NC(=S)c1ccccc1	Y

Request: Field: below-cutoff. Rule: recorded Kic strictly less than 3 µM. Subject: CCc1cc(C(N)=S)ccn1 [ETHIONAMIDE]
Result: Y

Request: Same lookup for `NC(=S)c1cccnc1` , please.
Result: N

Request: Same lookup for `NC(=S)c1ccccn1` , please.
Result: Y

* * *

// reported inhibition for each item listed
Target: Tyrosinase (Mus musculus) (UniProt P11344)
Experiment: Inhibition of tyrosinase in mouse B16F10 cell lysates using DOPA as substrate relative to control
Format: cell-free
Parameters: concentration or dose not given beside the values
Conditions: B16-F10, concentration not given here
Number in %, nothing else.

Answered cases to consult:
molecule	targetSystem	valueMeasured
CCCc1cc(C(N)=S)ccn1 [PROTIONAMIDE]	Tyrosinase (Mus musculus) (UniProt P11344)	84
NNC(=O)c1ccncc1 [ISONIAZID]	Tyrosinase (Mus musculus) (UniProt P11344)	97
NC(=S)Nc1ccccc1 [PHENYLTHIOUREA]	Tyrosinase (Mus musculus) (UniProt P11344)	27
NC(=S)c1ccncc1	Tyrosinase (Mus musculus) (UniProt P11344)	93
CC(=S)Nc1ccccc1	Tyrosinase (Mus musculus) (UniProt P11344)	42

API: the following record is the query input.
Request: # lookup: inhibition of CCc1cc(C(N)=S)ccn1 [ETHIONAMIDE]
Result: 88

Value source: ChEMBL document CHEMBL3739382
